- Experiment Summary: BET inhibitor-based combinations targeting novel dependencies in MECOM-rearranged (r) AML: HNT-34 cell line (AID 2202234); note: nearly all actives have a fitted effect of over 35% in size
- Applied Conditions: HNT-34 AML viability, CellTiter-Glo luminescence, 48 h; series mostly up to 46 µM
- Experimental: Ecotropic viral insertion site 1 (EVI1) is located on chromosome 3q26.2 as part of the MECOM (MDS and EVI1 complex) locus. […] A collection of 2480 mechanistically annotated dugs (MIPE v5.0) was used to screen four 3q26.2 rearranged AML cell lines and three non-3q26.2 rearranged AML cell lines. […] Cell viability was determined by luminescence based, Cell Titer Glo assay (Promega). […] Luminescence readings were taken using a Viewlux (PerkinElmer) with a 2 s exposure time per plate. […]
Results filed as inconclusive are left out. Active and inactive are the calls of the source. Calls come from the whole dose curve; as a rule, active = well fitted inhibition curve with a large enough effect; inconclusive = small, poorly fitted or top-dose-only effect; inactive = no such curve, though single readings can be large or run the other way.
Parameter call: string, one of t = active, f = inactive

Please review the following examples before continuing.
# Compound, Label
data = [
    ("O=C(NC[C@H](O)CO)c1ccncc1Nc1ccc(I)cc1F", "t"),
    ("CN(Cc1ccc(/C=C/C(=O)NO)cc1)CC12CC3CC(CC(C3)C1)C2", "t"),
    ("COc1ccc(N2C(=O)N(c3c(C)cccc3Cl)Cc3cnc(Nc4ccc(C5CCN(C)CC5)cc4OC)nc32)nc1", "t"),
    ("CN(C)Cc1ccc(-c2nc3cccc4c3n2CCNC4=O)cc1", "t"),
    ("COc1ccnc2[nH]cc(C(=O)C(=O)N3CCN(C(=O)c4ccccc4)C[C@H]3C)c12", "f"),
]

q: Recorded call for COc1ccc(-c2cc(C(O)C3CCCCN3)c3ccccc3n2)cc1 (stereo unspecified) ?
a: t

q: Recorded call for `CC(=O)NCCCS(=O)(=O)O` ?
a: f

q: Recorded call for `CN1C(=O)[C@@H](NC(=O)c2n[nH]c(Cc3ccccc3)n2)COc2ccccc21` ?
a: f

q: Recorded call for `N#C/C(=C1/Nc2ccccc2S1)c1ccnc(OCc2ccc(CN3CCOCC3)cc2)n1` ?
a: t

q: Recorded call for CCOC(=O)C1=C(C)NC(=S)NC1c1cccc(O)c1 (stereo unspecified) ?
a: t

q: Recorded call for `CC1(C)CCC2(CC1)N[C@@H](C(=O)N[C@@H]1CC[C@@H](C(N)=O)OC1)[C@H](c1ccnc(Cl)c1F)[C@]21C(=O)Nc2cc(Cl)ccc21` ?
a: t

* * *

- Experiment Summary: qHTS for Inhibitors of the Aldehyde Dehydrogenase Family (ALDH1A2, ALDH1A3, ALDH2, ALDH3A1) (AID 2061307); note: nearly all actives have a fitted effect of over 50% in size; for Potency: test system not described further here; potency is the fitted concentration of half-maximal effect
- Applied Conditions: ALDH inhibition qHTS; series mostly up to 50.3 µM
Results filed as inconclusive are left out. Calls of active or inactive are those of the source. Calls follow the shape of the dose curve; as a rule, active = well fitted inhibition curve with a large enough effect; inconclusive = small, poorly fitted or top-dose-only effect; inactive = no such curve, though single readings can be large or run the other way.
Endpoint Name: Potency

Reference set, count: 5
# Molecule, Potency
rows = [
    ("NNC(=O)c1ccc2ccccc2n1", "inactive"),
    ("Cc1occc1C(=O)N1CCc2cc(-c3nc(NC(=O)Cc4ccc5c(c4)OCO5)sc3C)ccc21", "7.08 µM (active)"),
    ("CNC(=O)c1cc(-c2ccc(N3CCOCC3)cc2)cc2c1OCCN2Cc1cccnc1", "inactive"),
    ("CCOc1ccc(CCNC(=O)c2cc3occc3[nH]2)cc1OCC", "inactive"),
    ("COc1ccc(-n2ncc3c2CCCC3NC(=O)c2cccc(C(F)(F)F)c2)cc1 (stereo unspecified)", "11.3 µM (active)"),
]

Would you mind listing Potency for each of the following molecules?
1. Oc1ccc(COC2CCN(Cc3ccccc3)C2)c2cccnc12 (stereo unspecified)
2. N#Cc1ccc(NC(=O)Cn2cnc3ccccc3c2=O)cc1
3. Cc1cnc(Cl)nc1NCc1ccc(-n2ccnn2)cc1

a:
1: inactive; 2: inactive; 3: inactive
